The listing below reports ΔTm for compounds tested on Serine/threonine-protein kinase OSR1 (Homo sapiens).
outcome.measure: ΔTm (°C)

CN(C)C[C@@H]1CCn2cc(c3ccccc32)C2=C(C(=O)NC2=O)c2cn(c3ccccc23)CCO1 [RUBOXISTAURIN]: -0.5
O=C1C=C2C(=Nc3c2c2c(c4c3=NC3=C4CCC=C3)C=NC=2)CC1: 2.1
Nc1n[nH]c2nc3ccccc3nc12 [QUINOXALINE1]: 0.7
O=C(O)Cc1ccc(O)c([N+](=O)[O-])c1: 0
COc1cc(/C=C/C(=O)CC(=O)/C=C/c2ccc(O)c(OC)c2)ccc1O [CURCUMIN]: 3.7
COc1ccc(CNC(=O)Nc2ncc([N+](=O)[O-])s2)cc1: 1.6
CC(C)(C)c1nc2c3ccc(F)cc3c3c(=O)[nH]ccc3c2[nH]1: 3
CC(C)c1nn(-c2c(Cl)cccc2Cl)c2nc(Cc3ccc(OCCO)cc3)[nH]c(=O)c12: 2.9
Nc1ncnc2c1c(I)cn2[C@@H]1O[C@H](CO)[C@@H](O)[C@H]1O: 2.4
CN[C@@H]1CC2O[C@@](C)([C@@H]1OC)n1c3ccccc3c3c4c(c5c6ccccc6n2c5c31)C(=O)NC4: 6.9
CC(C)n1cnc2c(NCc3ccccc3)nc(NCCCO)nc21: 0.3
O=C1NC(=O)C(c2cn(CCCn3ccnc3)c3ccccc23)=C1Nc1ccccc1: 0.2
CC(C)n1cnc2/c(=N/c3cccc(Cl)c3)nc(NCCO)[nH]c21: 1.3
COC(=O)[C@]1(O)C[C@@H]2O[C@@]1(C)n1c3ccccc3c3c4c(c5c6ccccc6n2c5c31)C(=O)NC4 (single isomer, unassigned): 1.8
COc1cc(O)c2c(c1)oc(=O)c1c3cc(O)c(O)cc3oc21 [WEDELOLACTONE]: 1.9
O=Nc1c(-c2c(O)[nH]c3ccccc23)[nH]c2ccccc12: 1.7
CCN(CC)CCNC(=O)c1c(C)[nH]c(/C=C2\C(=O)Nc3ccc(Cl)cc32)c1C [SU-11652]: 2.9
C[C@@H](N)[C@H]1CC[C@H](C(=O)Nc2ccncc2)CC1: -0.4
